Test system: Rattus norvegicus
Assay: Antipsychotic activity in ip dosed Sprague-Dawley rat assessed as protection against epinephrine-induced mortality administered 1 hr prior to epinephrine-challenge measured up to 24 hrs
Format: functional
Decide using ED50 alone. Strictly below 6 mg/kg: y. Equal to or above 6 mg/kg: n.

Inquiry: Quick check: ED50 of COc1ccccc1[C@@]1(O)CCN2C[C@@H]3c4ccccc4CCc4cccc(c43)[C@H]2C1.Cl (racemic) under 6 mg/kg?
Reply text: y

Inquiry: Quick check: ED50 of Cl.O[C@]1(Cc2ccccc2)CCN2C[C@@H]3c4ccccc4CCc4cccc(c43)[C@H]2C1 (racemic) under 6 mg/kg?
Reply text: n

Inquiry: Quick check: ED50 of Cl.O[C@]1(c2ccccc2)CCN2C[C@@H]3c4ccccc4CCc4cccc(c43)[C@H]2C1 (racemic) under 6 mg/kg?
Reply text: y

Inquiry: Quick check: ED50 of COc1ccc([C@@]2(O)CCN3C[C@@H]4c5ccccc5CCc5cccc(c54)[C@H]3C2)c(OC)c1.Cl (racemic) under 6 mg/kg?
Reply text: n

Inquiry: Quick check: ED50 of Cc1ccccc1[C@@]1(O)CCN2C[C@@H]3c4ccccc4CCc4cccc(c43)[C@H]2C1.Cl (racemic) under 6 mg/kg?
Reply text: n

Inquiry: Quick check: ED50 of Cl.O[C@]1(c2ccc(Br)cc2)CCN2C[C@@H]3c4ccccc4CCc4cccc(c43)[C@H]2C1 (racemic) under 6 mg/kg?
Reply text: n

Inquiry: Quick check: ED50 of Cl.O[C@]1(c2ccco2)CCN2C[C@@H]3c4ccccc4CCc4cccc(c43)[C@H]2C1 (racemic) under 6 mg/kg?
Reply text: n

Inquiry: Quick check: ED50 of Cl.O[C@]1(c2ccccc2C(F)(F)F)CCN2C[C@@H]3c4ccccc4CCc4cccc(c43)[C@H]2C1 (racemic) under 6 mg/kg?
Reply text: n

Inquiry: Quick check: ED50 of COc1ccc([C@@]2(O)CCN3C[C@@H]4c5ccccc5CCc5cccc(c54)[C@H]3C2)cc1OC.Cl (racemic) under 6 mg/kg?
Reply text: y

Attribution: ChEMBL document CHEMBL3244311
